Test system: Parabacteroides distasonis
assay.notes: growth AUC relative to DMSO control (median of replicates) (fraction); higher = more growth (less inhibition), active = hit call of the paper
experimental.parameters: 20 µM; 24 h
Reported growth AUC values for a set of compounds

Some entries whose results are on file:
{"compound": "Clc1ccccc1-c1nnc(-c2ccccc2Cl)nn1", "property.measured": "growth AUC", "experimental.result": "0.991 (inactive)"}
{"compound": "COC(=O)COc1cc(Cl)c(Cl)cc1Cl", "property.measured": "growth AUC", "experimental.result": "0.983 (inactive)"}
{"compound": "COP1(=S)OCc2ccccc2O1 (configuration not stated)", "property.measured": "growth AUC", "experimental.result": "1.05 (inactive)"}
{"compound": "CCOc1cc(C(C)(C)C)ccc1C1COC(c2c(F)cccc2F)=N1 (configuration not stated)", "property.measured": "growth AUC", "experimental.result": "0.891 (inactive)"}
{"compound": "CC(Oc1ccc(Oc2ncc(C(F)(F)F)cc2Cl)cc1)C(=O)O (configuration not stated)", "property.measured": "growth AUC", "experimental.result": "0.978 (inactive)"}

Lookup: growth AUC / Parabacteroides distasonis / CN(C)C(=O)Nc1cccc(OC(=O)NC(C)(C)C)c1
1.01 (inactive)

Another compound to look at: O=C(O)C(F)(F)C(F)(F)C(F)(F)C(F)(F)C(F)(F)C(F)(F)C(F)(F)C(F)(F)C(F)(F)F
0.913 (inactive)

* * *

System: Lactobacillus gasseri
assay.notes: growth AUC relative to DMSO control (median of replicates) (fraction); higher = more growth (less inhibition), active = hit call of the paper
experimental.parameters: 20 µM; 24 h
property.measured: growth AUC
Lab note: jot down the number only; don't add units.

Please review the entries below; each comes with its answer.
{"molecule": "CC(C)N(C(=O)COc1nnc(C(F)(F)F)s1)c1ccc(F)cc1", "measurement.target": "Lactobacillus gasseri", "growth AUC": 1.04}
{"molecule": "c1cc2ccc3cccc4ccc(c1)c2c34", "measurement.target": "Lactobacillus gasseri", "growth AUC": 0.993}
{"molecule": "CC(CCl)OP(=O)(OC(C)CCl)OC(C)CCl (mixture of isomers)", "measurement.target": "Lactobacillus gasseri", "growth AUC": 0.851}
{"molecule": "O=C(O)CCl", "measurement.target": "Lactobacillus gasseri", "growth AUC": 1.03}

Recorded growth AUC for COCc1cnc(C2=NC(C)(C(C)C)C(=O)N2)c(C(=O)O)c1 (centres undefined) , please?
0.91

Further, for CCC1COC(Cn2cncn2)(c2ccc(Cl)cc2Cl)O1 (centres undefined) ?
1.1

And CCNc1nc(NC(C)C)nc(SC)n1 ?
0.987

Now consider CC(=O)O.CC(=O)O.CC(=O)O.NC(N)=NCCCCCCCCNCCCCCCCCN=C(N)N and answer again.
0.89

* * *

Test system: Parabacteroides merdae
assay.notes: growth AUC relative to DMSO control (median of replicates) (fraction); higher = more growth (less inhibition), active = hit call of the paper;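 active = AUC reduced over 20% with Padj below 0.05 in at least 2 of 3 replicates; inactive = otherwise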
experimental.parameters: 20 µM; 24 h
Returns: one label drawn from true (1) for active, false (0) for inactive

Solved cases below.
{"compound": "CCCCOC(=O)N(C)SN(C)C(=O)Oc1cccc2c1OC(C)(C)C2", "discrete.label": "false (0)"}
{"compound": "O=c1oc2ccccc2c(O)c1C1CCCc2ccccc21 (configuration not stated)", "discrete.label": "false (0)"}
{"compound": "ClC1=C(Cl)[C@]2(Cl)[C@@H]3[C@H]4C[C@H]([C@@H]5O[C@H]45)[C@@H]3[C@@]1(Cl)C2(Cl)Cl", "discrete.label": "false (0)"}

Which outcome was assigned to CCCCCCCCSC(=O)Oc1cc(Cl)nnc1-c1ccccc1 in this test?
false (0)

Same for O=S1(=O)OCC2C(CO1)C1(Cl)C(Cl)=C(Cl)C2(Cl)C1(Cl)Cl (configuration not stated)
false (0)

* * *

Tested on: Eubacterium rectale
assay.notes: growth AUC relative to DMSO control (median of replicates) (fraction); higher = more growth (less inhibition), active = hit call of the paper
experimental.parameters: 20 µM; 24 h
Rule: T for growth AUC not less than 1, F for anything less.

# check: growth AUC of CCCSP(=S)(OCC)Oc1ccc(Cl)cc1Cl (centres undefined) is greater than or equal to 1
T

Now consider CN(C)C(=O)C(c1ccccc1)c1ccccc1 and answer again.
T

Another: CC(C)=CC1C(C(=O)OCN2C(=O)C3=C(CCCC3)C2=O)C1(C)C (centres undefined)
F

Also, CN/C(=N\[N+](=O)[O-])NCc1cnc(Cl)s1 please.
T

Would you kindly repeat that for COC(=O)N(OC)c1ccccc1COc1ccn(-c2ccc(Cl)cc2)n1 ?
T

Then this compound: O=C(Nc1ccccc1-c1ccc(Cl)cc1)c1cccnc1Cl
F

* * *

Tested on: Escherichia coli IAI1
assay.notes: growth AUC relative to DMSO control (median of replicates) (fraction); higher = more growth (less inhibition), active = hit call of the paper
experimental.parameters: 20 µM; 24 h
property.measured: growth AUC

Solved cases below.
{"compound": "COc1cc(OC)nc(NC(=O)[N-]S(=O)(=O)c2ncccc2OCC(F)(F)F)n1.[Na+]", "growth AUC": "0.982 (inactive)"}
{"compound": "CN(C)C(CSS(=O)(=O)[O-])CSS(=O)(=O)O.[Na+]", "growth AUC": "1.01 (inactive)"}
{"compound": "Fc1ccc(C2(Cn3cncn3)OC2c2ccccc2Cl)cc1 (centres undefined)", "growth AUC": "1.01 (inactive)"}

Attention now shifts to the item below.
Fill in the blank: the reported growth AUC of CC(Oc1ccc(Oc2ccc(C(F)(F)F)cn2)cc1)C(=O)O (centres undefined) is ____.
0.996 (inactive)

* * *

Test system: Lactobacillus gasseri
assay.notes: growth AUC relative to DMSO control (median of replicates) (fraction); higher = more growth (less inhibition), active = hit call of the paper
experimental.parameters: 20 µM; 24 h
Lab note: compare growth AUC against 0.9. Equal or greater, write Satisfied. Smaller, write Not satisfied.

{"compound": "CCSC(C)CC1CC(=O)C(/C(CC)=N/OC/C=C/Cl)=C(O)C1 (mixture of isomers)", "discrete.label": "Not satisfied"}
{"compound": "CCOP(=S)(OCC)SCS(=O)(=O)C(C)(C)C", "discrete.label": "Satisfied"}
{"compound": "C[C@@H](Oc1ccc(Oc2nc3ccc(Cl)cc3o2)cc1)C(=O)O", "discrete.label": "Satisfied"}
{"compound": "CC(C)OC(=O)Nc1cccc(Cl)c1", "discrete.label": "Not satisfied"}
{"compound": "CCOP(=S)(OCC)SCCSCC", "discrete.label": "Satisfied"}

Kindly consider the entry below.
Is growth AUC at least 0.9? Consider Cc1nnc(-c2ccccc2)c(=O)n1N
Satisfied

* * *

Test system: Clostridium difficile
assay.notes: growth AUC relative to DMSO control (median of replicates) (fraction); higher = more growth (less inhibition), active = hit call of the paper
experimental.parameters: 20 µM; 24 h
Give true (1) when the value for growth AUC is at least 1. Give false (0) when it is less.

{"molecule": "N#Cc1c[nH]cc1-c1cccc(Cl)c1Cl", "discrete.label": "false (0)"}
{"molecule": "Cc1cc(Cl)ccc1OCC(=O)O", "discrete.label": "false (0)"}
{"molecule": "CC(C)(O)C(Cl)(Cl)Cl.CC(C)(O)C(Cl)(Cl)Cl.O", "discrete.label": "true (1)"}

Is growth AUC for O=C(O)CNCP(=O)(O)O at or above 1?
true (1)

Then what about the molecule C#CC(C)(C)NC(=O)c1cc(Cl)cc(Cl)c1 ?
false (0)

Entry to check: CC(C1CC1)C(O)(Cn1cncn1)c1ccc(Cl)cc1 (mixture of isomers)
false (0)

* * *

Test system: Roseburia intestinalis
assay.notes: growth AUC relative to DMSO control (median of replicates) (fraction); higher = more growth (less inhibition), active = hit call of the paper
experimental.parameters: 20 µM; 24 h
Class 1: growth AUC at least 1. Class 0: growth AUC below 1.

{"compound": "COP(=S)(NC(C)C)Oc1ccccc1C(=O)OC(C)C (configuration not stated)", "discrete.label": 0}

Check the entry CC1(C)CN=C(NN=C(/C=C/c2ccc(C(F)(F)F)cc2)/C=C/c2ccc(C(F)(F)F)cc2)NC1 : does growth AUC equal or exceed 1?
0

Also CCOP(=O)(OCC)O/C(=C\Cl)c1ccc(Cl)cc1Cl , if possible.
1

How about this compound: CO/N=C(/C(=O)OC)c1ccccc1CO/N=C(\C)c1cccc(C(F)(F)F)c1
1

Then what about the compound O=C(O)COc1cc(Cl)c(Cl)cc1Cl ?
0

Also FC(F)C(F)(F)OCC(Cn1cncn1)c1ccc(Cl)cc1Cl (configuration not stated) ?
0

What do you have for CC1(C)[C@H](C(=O)O[C@H](C#N)c2cccc(Oc3ccccc3)c2)[C@@H]1/C=C\C(=O)OC(C(F)(F)F)C(F)(F)F ?
0

Can you check CCc1ccc(C(=O)NN(C(=O)c2cc(C)cc(C)c2)C(C)(C)C)cc1 next?
0

Same lookup for C=CCOC(Cn1ccnc1)c1ccc(Cl)cc1Cl.O=S(=O)(O)O (configuration not stated) , please.
0

// query: CN/C(=N\[N+](=O)[O-])NCc1cnc(Cl)s1
1

Repeat for the following compound: CC(Cc1ccc(C(C)(C)C)cc1)CN1C[C@@H](C)O[C@@H](C)C1 (some centres not stated)
1

Try OC[C@@H](O)[C@H]1O[C@@H]2O[C@H](C(Cl)(Cl)Cl)O[C@@H]2[C@H]1O (mixture of isomers) next.
0

Request: CC(C)(C)C(O)C(Cc1ccc(Cl)cc1Cl)n1cncn1 (mixture of isomers)
0

Same read-out for OC(Cc1ccccc1Cl)(Cn1cncn1)C1(Cl)CC1 (configuration not stated) ?
1
